# PROTOCOL_DETAILS: Oral bioavailability in CD1 mouse at 3 mg/kg
# Type: ADME, organism-based
# CONDITION_DESCRIPTION: in vivo
MEASURED_ATTRIBUTE: bioavailability (%)
The reply should be a number in %, with the unit left off.

Exercise: What value of measured bioavailability is listed for "O=C(NO)c1cnc(N2C[C@H]3CN(Cc4ccc5ccccc5c4)C[C@H]3C2)nc1" ?
Key: 15

###

# Test system: U-937
# PROTOCOL_DETAILS: cells
# Format: functional
# CONDITION_DESCRIPTION: Homo sapiens, U-937, 72 h
# Description: Growth inhibition of human U937 cells after 72 hrs by SRB assay
In this section, each of the molecules is paired with its reported log10 of GI50.
Record value = log10 of GI50 given in nM.

Solved cases below.
| SMILES_CODE | ASSAYED_TARGET | log10 of GI50 |
| --- | --- | --- |
| O=C(NO)c1cnc(N2C[C@H]3CN(Cc4ccc5ccccc5c4)C[C@H]3C2)nc1 | U-937 | 1.86 |
| O=C(NO)c1ccc(N2C[C@H]3CN(Cc4ccc5ccccc5c4)C[C@H]3C2)nc1 | U-937 | 2.65 |
| O=C(NO)c1cnc(N2C[C@H]3CN(C(=O)c4ccc5ccccc5c4)C[C@H]3C2)nc1 | U-937 | 2.59 |
| O=C(NO)c1cnc(N2C[C@H]3CN(Cc4ccc(Cl)cc4)C[C@H]3C2)nc1 | U-937 | 2.36 |
| O=C(NO)c1cnc(N2C[C@H]3CN(C(=O)CCCOc4ccccc4)C[C@H]3C2)nc1 | U-937 | 2.95 |

Exercise: What value of log10 of GI50 has been recorded for this entry: "O=C(NO)c1cnc(N2C[C@@H]3CN(S(=O)(=O)c4cc(C(F)(F)F)cc(C(F)(F)F)c4)C[C@@H]3C2)nc1"
Key: 3.10

Exercise: Follow-up item: "COc1ccc(CN2C[C@@H]3CN(c4ncc(C(=O)NO)cn4)C[C@@H]3C2)cc1"
Key: 2.74

Exercise: Do the same for "O=C(NO)c1cnc(N2C[C@@H]3CN(S(=O)(=O)c4ccc(OC(F)(F)F)cc4)C[C@@H]3C2)nc1" please
Key: 2.99

Exercise: Item: "O=C(NO)c1cnc(N2C[C@@H]3CN(S(=O)(=O)c4ccc5ccccc5c4)C[C@@H]3C2)nc1"
Key: 2.68

###

# ASSAYED_TARGET: Cytochrome P450 2D6 (Homo sapiens, UniProt P10635)
# Sequence (P10635 whole entry): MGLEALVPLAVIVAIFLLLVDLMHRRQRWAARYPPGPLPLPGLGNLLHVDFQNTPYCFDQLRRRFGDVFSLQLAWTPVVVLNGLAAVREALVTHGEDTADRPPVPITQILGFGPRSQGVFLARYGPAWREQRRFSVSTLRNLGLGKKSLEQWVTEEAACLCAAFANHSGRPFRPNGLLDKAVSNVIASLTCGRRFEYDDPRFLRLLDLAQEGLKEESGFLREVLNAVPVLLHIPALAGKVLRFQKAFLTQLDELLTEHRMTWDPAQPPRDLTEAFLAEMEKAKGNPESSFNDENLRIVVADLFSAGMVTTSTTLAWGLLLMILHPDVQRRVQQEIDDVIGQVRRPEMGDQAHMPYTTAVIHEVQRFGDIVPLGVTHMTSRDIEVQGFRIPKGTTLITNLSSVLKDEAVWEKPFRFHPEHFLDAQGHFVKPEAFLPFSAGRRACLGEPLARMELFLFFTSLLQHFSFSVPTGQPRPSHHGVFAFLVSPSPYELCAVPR
MEASURED_ATTRIBUTE: pIC50
Scale note: pIC50 = -log10(concentration in M).

Exercise: May I ask what pIC50 has been recorded for "O=C(NO)c1cnc(N2C[C@H]3CN(Cc4ccc5ccccc5c4)C[C@H]3C2)nc1" ?
Key: 5.00

###

# PROTOCOL_DETAILS: Cmax in CD1 mouse spleen at 3 mg/kg, po or 1 mg/kg, iv
# Format: ADME, organism-based
MEASURED_ATTRIBUTE: Cmax (ng/mL)
Quick note: give the figure in ng/mL, leave out the unit.

Exercise: Record request: Cmax value, item "O=C(NO)c1cnc(N2C[C@H]3CN(Cc4ccc5ccccc5c4)C[C@H]3C2)nc1"
Key: 218

###

# PROTOCOL_DETAILS: Drug level in plasma of human HCT116 cells xenografted in CrTac:NCr-Fox1 (nu) athymic mouse at 50 mg/kg, po qd for 16 days measured after 1 hr
# Assay type: ADME, organism-based, HCT-116
# Parameters: dose 50 mg/kg, route oral
# CONDITION_DESCRIPTION: read-out: Drug uptake
MEASURED_ATTRIBUTE: concentration at 1 h

Exercise: Look at this compound and give its reported concentration at 1 h. "O=C(NO)c1cnc(N2C[C@H]3CN(Cc4ccc5ccccc5c4)C[C@H]3C2)nc1"
Key: 14 nM

###

# PROTOCOL_DETAILS: Apparent permeability of the compound by PAMPA assay
# Assay type: ADME
MEASURED_ATTRIBUTE: Papp
Number plus unit, in that order.

Exercise: Param item = "O=C(NO)c1cnc(N2C[C@H]3CN(Cc4ccc5ccccc5c4)C[C@H]3C2)nc1" ; retrieve measured Papp.
Key: 0.5 ×10⁻⁶ cm/s

###

# PROTOCOL_DETAILS: Drug level in plasma of human HCT116 cells xenografted in CrTac:NCr-Fox1 (nu) athymic mouse at 50 mg/kg, po qd for 16 days measured after 4 hrs
# Format: ADME, organism-based, HCT-116
# Design: dose 50 mg/kg, route oral
# CONDITION_DESCRIPTION: read-out: Drug uptake
MEASURED_ATTRIBUTE: concentration at 4 h (nM)
Answer format: numeric, nM implied, no suffix.

Exercise: Endpoint output: concentration at 4 h of "O=C(NO)c1cnc(N2C[C@H]3CN(Cc4ccc5ccccc5c4)C[C@H]3C2)nc1" . Value?
Key: 25

###

# ASSAYED_TARGET: UniProt Q12809
# Sequence (Q12809 whole entry): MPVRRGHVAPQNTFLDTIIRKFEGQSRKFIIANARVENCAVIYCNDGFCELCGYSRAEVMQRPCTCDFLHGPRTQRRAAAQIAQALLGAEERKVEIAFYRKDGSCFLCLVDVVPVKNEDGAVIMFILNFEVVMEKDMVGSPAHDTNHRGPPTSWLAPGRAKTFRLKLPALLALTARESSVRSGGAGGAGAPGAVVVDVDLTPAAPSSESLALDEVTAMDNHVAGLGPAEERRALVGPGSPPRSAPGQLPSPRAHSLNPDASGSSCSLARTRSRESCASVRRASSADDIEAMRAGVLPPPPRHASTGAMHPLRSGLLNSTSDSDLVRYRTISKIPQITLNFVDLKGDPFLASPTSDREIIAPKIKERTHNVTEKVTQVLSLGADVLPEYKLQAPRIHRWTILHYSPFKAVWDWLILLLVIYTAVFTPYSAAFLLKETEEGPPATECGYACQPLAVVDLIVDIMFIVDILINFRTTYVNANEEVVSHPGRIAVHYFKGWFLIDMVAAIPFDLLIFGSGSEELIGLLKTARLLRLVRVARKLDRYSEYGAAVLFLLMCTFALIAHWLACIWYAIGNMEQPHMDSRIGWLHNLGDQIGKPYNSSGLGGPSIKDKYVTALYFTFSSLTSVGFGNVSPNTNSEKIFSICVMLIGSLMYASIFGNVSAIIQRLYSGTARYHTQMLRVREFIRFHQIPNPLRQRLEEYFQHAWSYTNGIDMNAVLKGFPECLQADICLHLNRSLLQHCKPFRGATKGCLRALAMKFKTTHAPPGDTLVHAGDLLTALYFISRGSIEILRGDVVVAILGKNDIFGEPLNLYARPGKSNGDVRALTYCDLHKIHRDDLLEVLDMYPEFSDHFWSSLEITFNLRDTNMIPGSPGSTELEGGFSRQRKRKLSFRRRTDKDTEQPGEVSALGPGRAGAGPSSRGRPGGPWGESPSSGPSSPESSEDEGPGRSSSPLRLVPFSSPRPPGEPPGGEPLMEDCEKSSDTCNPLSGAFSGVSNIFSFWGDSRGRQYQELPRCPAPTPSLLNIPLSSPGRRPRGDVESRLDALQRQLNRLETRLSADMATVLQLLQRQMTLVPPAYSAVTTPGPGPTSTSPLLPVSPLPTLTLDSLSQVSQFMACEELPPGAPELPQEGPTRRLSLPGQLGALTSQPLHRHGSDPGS
MEASURED_ATTRIBUTE: IC50 (µM)
Give your result in µM as a bare value.

Exercise: Please give the measured IC50 for this molecule: "O=C(NO)c1cnc(N2C[C@H]3CN(Cc4ccc5ccccc5c4)C[C@H]3C2)nc1"
Key: 4.1

###

# PROTOCOL_DETAILS: Metabolic stability in human liver microsomes at 10 uM after 30 mins
# Type: ADME, Microsome
# CONDITION_DESCRIPTION: read-out: Stability
MEASURED_ATTRIBUTE: remaining at 0.5 h, 10 µM
Number first, unit second: that is the form wanted.

Exercise: Reported remaining at 0.5 h, 10 µM, compound "O=C(NO)c1cnc(N2C[C@H]3CN(Cc4ccc5ccccc5c4)C[C@H]3C2)nc1" : ____
Key: 72%

###

# ASSAYED_TARGET: Histone deacetylase
# PROTOCOL_DETAILS: Inhibition of HDAC in human HeLa cell nuclear extracts by fluorimetric assay
# Assay type: protein assay
MEASURED_ATTRIBUTE: IC50 (nM)
Reply numerically in nM, unit not repeated.

Use these answered entries as a reference point.
| SMILES_CODE | ASSAYED_TARGET | IC50 / nM |
| --- | --- | --- |
| O=C(NO)c1cnc(N2C[C@H]3CN(C(=O)CCCOc4ccccc4)C[C@H]3C2)nc1 | Histone deacetylase | 122 |
| O=C(NO)c1cnc(N2C[C@@H]3CN(S(=O)(=O)c4cc(C(F)(F)F)cc(C(F)(F)F)c4)C[C@@H]3C2)nc1 | Histone deacetylase | 433 |
| O=C(NO)c1cnc(N2C[C@H]3CN(Cc4ccc(Cl)cc4)C[C@H]3C2)nc1 | Histone deacetylase | 42 |
| COc1ccc(CN2C[C@@H]3CN(c4ncc(C(=O)NO)cn4)C[C@@H]3C2)cc1 | Histone deacetylase | 95 |
| O=C(NO)c1ccc(N2C[C@H]3CN(Cc4ccc5ccccc5c4)C[C@H]3C2)nc1 | Histone deacetylase | 45 |
| O=C(NO)c1cnc(N2C[C@@H]3CN(S(=O)(=O)c4ccc5ccccc5c4)C[C@@H]3C2)nc1 | Histone deacetylase | 64 |
| O=C(NO)c1cnc(N2C[C@@H]3CN(S(=O)(=O)c4ccc(OC(F)(F)F)cc4)C[C@@H]3C2)nc1 | Histone deacetylase | 123 |
| O=C(NO)c1cnc(N2C[C@H]3CN(Cc4ccc5ccccc5c4)C[C@H]3C2)nc1 | Histone deacetylase | 13 |

Exercise: Fill in: IC50 of "O=C(NO)c1cnc(N2C[C@H]3CN(C(=O)c4ccc5ccccc5c4)C[C@H]3C2)nc1" is ___
Key: 12
